Assay info: Stability of compound assessed as Proteinase K (unknown origin) mediated compound degradation by measuring fold change of half-life by HPLC analysis relative to BimBH312-mer peptide
Assay type: ADME
Square brackets hold non-standard residues; d marks the D form. Peptide text beside a SMILES is read from it. * marks the point of attachment. ξ: configuration not given here. C22 diacid = O=C(O)CCCCCCCCCCCCCCCCCCCCC(=O)*; C20 diacid = O=C(O)CCCCCCCCCCCCCCCCCCC(=O)*; C18 diacid = O=C(O)CCCCCCCCCCCCCCCCC(=O)*; Stearoyl = CCCCCCCCCCCCCCCCCC(=O)*; Palmitoyl = CCCCCCCCCCCCCCCC(=O)*; Myristoyl = CCCCCCCCCCCCCC(=O)*; ξR = N=C(N)NCCCC(N)C(=O)O
fold change (FC) values, listed per item
Give the value as a plain number.

Molecule | fold change (FC)
CCCCCCCCCCCCCCCC(=O)N[C@H](C(=O)N[C@@H](C)C(=O)N[C@@H](CCC(N)=O)C(=O)N[C@@H](CCC(=O)O)C(=O)N[C@@H](CC(C)C)C(=O)N[C@@H](CCCNC(=N)N)C(=O)N[C@@H](CCCNC(=N)N)C(=O)N[C@H](C(=O)NCC(=O)N[C@@H](CC(=O)O)C(=O)N[C@@H](CCC(=O)O)C(=O)N[C@@H](Cc1ccccc1)C(=O)O)[C@@H](C)CC)[C@@H](C)CC (Palmitoyl-IAQELRRIGDEF-OH) | 56.4
CC[C@H](C)[C@H](NC(=O)CCCCCCCCCCCCCCCCC(=O)O)C(=O)N[C@@H](C)C(=O)N[C@@H](CCC(N)=O)C(=O)N[C@@H](CCC(=O)O)C(=O)N[C@@H](CC(C)C)C(=O)N[C@@H](CCCNC(=N)N)C(=O)NC(CCCNC(=N)N)C(=O)N[C@H](C(=O)NCC(=O)N[C@@H](CC(=O)O)C(=O)N[C@@H](CCC(=O)O)C(=O)N[C@@H](Cc1ccccc1)C(=O)O)[C@@H](C)CC (stereo partly specified) ({C18 diacid}-IAQELR[ξR]IGDEF-OH) | 2.6
CC[C@H](C)[C@H](NC(=O)CCCCCCCCCCCCCCCCCCC(=O)O)C(=O)N[C@@H](C)C(=O)N[C@@H](CCC(N)=O)C(=O)N[C@@H](CCC(=O)O)C(=O)N[C@@H](CC(C)C)C(=O)N[C@@H](CCCNC(=N)N)C(=O)NC(CCCNC(=N)N)C(=O)N[C@H](C(=O)NCC(=O)N[C@@H](CC(=O)O)C(=O)N[C@@H](CCC(=O)O)C(=O)N[C@@H](Cc1ccccc1)C(=O)O)[C@@H](C)CC (stereo partly specified) ({C20 diacid}-IAQELR[ξR]IGDEF-OH) | 18

# input molecule: CCCCCCCCCCCCCC(=O)N[C@H](C(=O)N[C@@H](C)C(=O)N[C@@H](CCC(N)=O)C(=O)N[C@@H](CCC(=O)O)C(=O)N[C@@H](CC(C)C)C(=O)N[C@@H](CCCNC(=N)N)C(=O)NC(CCCNC(=N)N)C(=O)N[C@H](C(=O)NCC(=O)N[C@@H](CC(=O)O)C(=O)N[C@@H](CCC(=O)O)C(=O)N[C@@H](Cc1ccccc1)C(=O)O)[C@@H](C)CC)[C@@H](C)CC (stereo partly specified) (Myristoyl-IAQELR[ξR]IGDEF-OH) ; wanted: its fold change (FC)
# output 5.8

# input molecule: CC[C@H](C)[C@H](NC(=O)CCCCCCCCCCCCCCCCCCCCC(=O)O)C(=O)N[C@@H](C)C(=O)N[C@@H](CCC(N)=O)C(=O)N[C@@H](CCC(=O)O)C(=O)N[C@@H](CC(C)C)C(=O)N[C@@H](CCCNC(=N)N)C(=O)NC(CCCNC(=N)N)C(=O)N[C@H](C(=O)NCC(=O)N[C@@H](CC(=O)O)C(=O)N[C@@H](CCC(=O)O)C(=O)N[C@@H](Cc1ccccc1)C(=O)O)[C@@H](C)CC (stereo partly specified) ({C22 diacid}-IAQELR[ξR]IGDEF-OH) ; wanted: its fold change (FC)
# output 10.2

# input molecule: CCCCCCCCCCCCCCCCCC(=O)N[C@H](C(=O)N[C@@H](C)C(=O)N[C@@H](CCC(N)=O)C(=O)N[C@@H](CCC(=O)O)C(=O)N[C@@H](CC(C)C)C(=O)N[C@@H](CCCNC(=N)N)C(=O)NC(CCCNC(=N)N)C(=O)N[C@H](C(=O)NCC(=O)N[C@@H](CC(=O)O)C(=O)N[C@@H](CCC(=O)O)C(=O)N[C@@H](Cc1ccccc1)C(=O)O)[C@@H](C)CC)[C@@H](C)CC (stereo partly specified) (Stearoyl-IAQELR[ξR]IGDEF-OH) ; wanted: its fold change (FC)
# output 28.6

Data provenance: ChEMBL document CHEMBL5316338
